Reported values of growth inhibition for individual entries
experiment: NCI Yeast Anticancer Drug Screen. Data for the mec2-1 strain (AID 157); conditions: S. cerevisiae mec2-1 strain, at 50.0 µM, active compounds read high
About 79,000 compounds went through this panel and 15% of them were active in at least one assay; those are over-represented in the sample as a whole.
Give the value, in units of %, as a plain number.

Clc1cccc2nncc(N3CC3)c12; 23.6
CN(C)c1ccc(C=O)cc1.[C-]#[O+].[C-]#[O+].[C-]#[O+].[Cr]; -35.5
O=C1NC(=O)C(F)(n2cc(F)c(=O)[nH]c2=O)C(O)N1 (stereo not drawn); -31.3
CN(C)c1ccccc1; 42.1
COc1cc2c(c3oc4cccc(O)c4c(=O)c13)[C@@H]1C=CO[C@@H]1O2; -15.2

Quick check: growth inhibition of N.N.N.N.N.O=[N+]([O-])[O-].[Co+3].[O-][Cl+3]([O-])([O-])[O-] ?
4.6

Requested read-out: growth inhibition. Entry: CCOC(=O)C(Cc1c[nH]c2ccccc12)NC(=O)/C=C/N(CCCl)CCCl (stereo not drawn)
9.95

Reported growth inhibition for CCN(CC)CCn1ccc2ccccc21 : what is it?
-18.4

Quick one: growth inhibition of CN(C)NP(=O)(c1ccccc1)c1ccccc1 ?
-3.05

# lookup: growth inhibition of CCOC(=O)C12CCC(=O)C=C1CN(C)CC2 (stereo not drawn)
0.1

Recorded growth inhibition of C=CCN1CC2CN=NC2(C#N)C1 (stereo not drawn) , please.
6.45

If you can, please state the reported growth inhibition value of CCCCN(CCCC)C(=O)C1C=C2c3cccc4[nH]cc(c34)CC2N(C)C1 (stereo not drawn) .
-1.3

Fill in: growth inhibition of CCOP(=O)(CC(N)=O)OCC is ___
9.8

Fill in: growth inhibition of Nc1cc(S(=O)(=O)O)cc2cc(S(=O)(=O)O)c(N=Nc3ccc([As]=O)cc3)c(O)c12 (stereo not drawn) is ___
15.3
